What TGI was measured for each of the following?
Tested on: SF-268 CNS
Test Protocol: NCI tumour cell line growth inhibition, 48 h

Lookup: Which measured TGI belongs to Cc1cccc(NC(=O)C(=O)C(C(=O)c2ccc3ccccc3c2)C2OC(=O)c3ccccc32)c1C (stereo not given) , tested on SF-268 CNS?
Found: 53.6 µM

Lookup: Return TGI measured with SF-268 CNS given this compound: CCOC(=O)C(=Cc1[nH]c2ccccc2c1-c1c[nH]c2ccccc12)C(=O)OCC
Found: 30.5 µM

Lookup: Form field - read-out: TGI; system: SF-268 CNS; submitted item: C=CC(CCc1ccc(C(=O)OCC)cc1)c1c(N)nc(N)[nH]c1=O (stereo not given)
Found: > 100 µM

Lookup: Enter reported TGI observed with SF-268 CNS for CC(C)C(Nc1c2ccccc2nc2ccccc12)C(=O)O (stereo not given)
Found: > 100 µM

Lookup: # returns recorded TGI (system: SF-268 CNS) for NC(N)=NCCC[C@H](N)C(=O)NCC(=O)N[C@@H](CC(=O)O)c1ncc(NC(=O)C(F)(F)F)o1
Found: > 25 µM

Lookup: Lab note: need TGI for N#CC(NNC(=O)Cc1ccccc1)c1c(O)ccc2ccccc12 (stereo not given) on SF-268 CNS, anyone have it?
Found: 54.5 µM

Lookup: Request - read-out TGI | tested on SF-268 CNS | compound Oc1ccccc1C(Sc1nc2ccccc2s1)Sc1nc2ccccc2s1
Found: > 100 µM

Lookup: Field: TGI (SF-268 CNS). Entry: O=c1cc(-c2ccc(F)cc2)[nH]c2ncc(Cl)cc12
Found: > 100 µM

Lookup: Form field - read-out: TGI; system: SF-268 CNS; submitted item: Oc1ccc(-c2nc(-c3cccnc3)c(-c3ccc(Cl)cc3)[nH]2)cc1
Found: 29.6 µM

Lookup: Please provide the recorded TGI for CCN(CC)C(=O)Cn1c(C)cc2ccccc21 , tested on SF-268 CNS.
Found: > 100 µM

----------
I'd appreciate it if you could supply TGI values for the items below.
Test system: HOP-62 NSCLC
Test Protocol: NCI tumour cell line growth inhibition, 48 h

Lookup: Recorded TGI of COC(=O)[C@@H](C)CNS(=O)(=O)N(c1cc(C(F)(F)F)cc(C(F)(F)F)c1)C1CCN(Cc2ccc(F)cc2)CC1 , please.
Found: 29 µM

Lookup: Look up TGI: COc1ccc(Cn2cc3c(c2-c2ccccc2)CC(C)(C)c2cnoc2-3)cc1
Found: > 100 µM

Lookup: # lookup: TGI of c1ccc2c(c1)ccn2CCc1c[nH]c2ccccc12
Found: > 10 µM

Lookup: What measured TGI goes with COC[C@@H](C[C@H]1O[C@@](O)([C@H](O)[C@@H]2C[C@H](OC)[C@@H](O)CC/C=C(C)/C=C/[C@@H](O[C@@H]3O[C@@H](C)[C@H](OC)[C@@H](O)[C@@H]3O)[C@H](C)/C=C(C)/C=C(C)/C=C(\C)C(=O)O2)[C@H](C)[C@@H](O)[C@H]1C)O[C@H]1C[C@](C)(O)[C@@H](O[C@H]2C[C@@H](OC)[C@H](O)[C@@H](C)O2)C(C)O1 (stereo partly specified) ?
Found: > 100 µM

Lookup: What value of TGI has been reported for the following molecule? O=C(N/N=C\c1cccc2c([N+](=O)[O-])cccc12)Nc1ccccc1
Found: 36 µM

Lookup: Any idea what its TGI is? The molecule is Cc1cccc(N2CCN(C(=S)c3ccc4c(c3)OCO4)CC2)c1
Found: > 100 µM

Lookup: What value of measured TGI is listed for COC(=O)C1=C(C)N(NC(=O)OC(C)(C)C)C(=O)C1=P(c1ccccc1)(c1ccccc1)c1ccccc1 ?
Found: > 100 µM

Lookup: // returns reported TGI for input NN/C(=N\S(=O)(=O)c1cc2ccccc2s1)Nc1ccc(Cl)cc1
Found: 38.2 µM

Lookup: Value lookup for TGI; key = CC(C)(C)c1cc(C(C)(C)C)cc(S(=O)(=O)Nc2cc3ccccc3cc2C(=O)NCCN)c1
Found: 3.01 µM

Lookup: Given the molecule COC1=CC(=O)c2nc(-c3cccc(C)n3)[nH]c2C1=O , what is its reported TGI?
Found: 35.9 µM

Lookup: Name the reported TGI value associated with the molecule NP(=O)(Oc1c2occc2cc2ccc(=O)oc12)N(CCCl)CCCl (stereo unspecified)
Found: > 100 µM

Lookup: I am curious: what TGI value has been reported for O=C(N/N=C/c1ccccc1)c1c(-c2cccnc2)cnc2ccccc12 ?
Found: > 100 µM

Lookup: Quick one: TGI of COc1ccc(-c2n[nH]nc2-c2cc(OC)c(OC)c(OC)c2)cc1 ?
Found: > 73.2 µM

Lookup: May I ask what TGI has been recorded for Cc1ccc(C2=C(c3ccccc3)C(Br)(c3ccc(C)cc3)C(c3ccccc3)=C2c2ccc(C)cc2)cc1 ?
Found: > 100 µM

Lookup: Which TGI value belongs to c1cc(CNC23CC4CC(CC(C4)C2)C3)cc(C[N+](Cc2cccc(CNC34CC5CC(CC(C5)C3)C4)c2)(Cc2cccc(CNC34CC5CC(CC(C5)C3)C4)c2)Cc2cccc(CNC34CC5CC(CC(C5)C3)C4)c2)c1 (stereo unspecified) ?
Found: 42.1 µM

Lookup: Give the measured TGI of Cc1cc(S(=O)(=O)N=C2N(Cc3ccccc3)CCN2Cc2ccccc2)c(S)cc1Cl .
Found: > 100 µM

// data source = PubChem BioAssay (NCI)
